# assay_name: qHTS drug screen for cell cycle checkpoint inhibitors in PARPi-resistant BRCA-mutant ovarian cancer cell lines. (AID 1963452)
# condition_context: PEO1/OlaR viability, CellTiter-Glo luminescence, 96 h; measured here: PEO1 parental Z-AUC; stronger effect = lower value
measured_endpoint: Z-AUC
Answer with a number only.

Cc1cnc(NC(=O)Nc2cc(Br)c(C)cc2OC[C@@H]2CNCCO2)cn1 = -0.193

# ---- query compound ----
Q. Using the record for COc1ccc(C=Cc2cc(OC)c(OC)c(OC)c2)cc1NC(=O)[C@H](N)CO , report its Z-AUC.
A. -1.39

----------
# assay_name: qHTS of pediatric cancer cell lines to identify multiple opportunities for drug repurposing: Primary screen for BT-37 cells (AID 1347094)
# condition_context: BT-37 viability, CellTiter-Glo luminescence, 48 h; series mostly up to 57.3 µM
Records with an inconclusive call do not appear. Calls of active or inactive are those of the source. Calls follow the shape of the dose curve; as a rule, active = well fitted cell-killing curve with a large enough effect; inconclusive = small, poorly fitted or top-dose-only effect; inactive = flat fitted curve, though single readings scatter. Positions of bridges follow the written chain, without caps; N, C: chain ends. Non-standard residues stand in square brackets, D forms with d. Residues, ends and D or L forms follow the SMILES beside them. ξ: configuration not given here. *: point of attachment. Octanoyl(6-Me) = CCC(C)CCCCC(=O)*; ξThr(3R) = C[C@@H](O)C(N)C(=O)O; dDab = NCC[C@@H](N)C(=O)O; Dab = NCC[C@H](N)C(=O)O; Nva = CCC[C@H](N)C(=O)O; Cbz = O=C(OCc1ccccc1)*
Could you please pick one outcome from this set? yes for active, no for inactive

N[C@H]1CN(c2c(F)cc3c(=O)c(C(=O)O)cn(C4C[C@@H]4F)c3c2Cl)CC12CC2 (some centres undefined) = no

Q. Any idea what this test logged for CC(C)[C@H](CO)Nc1nc(Nc2cccc(Cl)c2)c2ncn(C(C)C)c2n1 ?
A. yes

Q. Any idea what this test logged for CC(C)N(CC[C@H](c1ccccc1)c1cc(CO)ccc1O)C(C)C ?
A. no

Q. Any idea what this test logged for O=S(=O)(O)CCSSCCS(=O)(=O)O ?
A. no

Q. Any idea what this test logged for CC(=O)[C@]1(O)Cc2c(O)c3c(c(O)c2[C@@H](O[C@H]2C[C@H](N)[C@@H](O)[C@H](C)O2)C1)C(=O)c1ccccc1C3=O ?
A. yes

Q. Any idea what this test logged for Cc1cc(-c2nnc3n2CCCCC3)c(C)n1-c1ccccc1 ?
A. no

Q. Any idea what this test logged for CCC[C@@H](C=O)NC(=O)[C@H](CC(C)C)NC(=O)[C@H](CC(C)C)NC(=O)OCc1ccccc1 (Cbz-Leu-Leu-[Nva]-aldehyde) ?
A. yes

Q. Any idea what this test logged for CCS(=O)(=O)Nc1ccc2[nH]c(O)c(C(=Nc3ccc(CN4CCCCC4)cc3)c3ccccc3)c2c1 ?
A. yes

Q. Any idea what this test logged for C=CC(=O)Nc1cccc(Nc2nc(NC3CCC(N(C)C)CC3)nc3c2ncn3C(C)C)c1 (centres undefined) ?
A. yes

Q. Any idea what this test logged for CN(CC(=O)N(Cc1ccc(C2CCCCC2)cc1)c1ccc(C(=O)O)c(O)c1)S(=O)(=O)c1c(F)c(F)c(F)c(F)c1F ?
A. yes

Q. Any idea what this test logged for CC[C@H]1OC(=O)[C@H](C)[C@@H](O[C@H]2C[C@@](C)(OC)[C@@H](O)[C@H](C)O2)[C@H](C)[C@@H](O[C@@H]2O[C@H](C)C[C@H](N(C)C)[C@@H]2O)[C@](C)(OC)C[C@@H](C)C(=O)[C@H](C)[C@@H](O)[C@]1(C)O ?
A. no

Q. Any idea what this test logged for O=C(Nc1ccc(Oc2ccnc3[nH]ccc23)c(F)c1)c1cccn(-c2ccc(F)cc2)c1=O ?
A. no

Q. Any idea what this test logged for NC(=O)N1CCC(CC(=O)N2CCC([C@H]3c4ncc(Br)cc4CCc4cc(Cl)cc(Br)c43)CC2)CC1 ?
A. yes

Q. Any idea what this test logged for CC(=O)N[C@@H]1[C@H](O[C@@H]2c3ccc(c(Cl)c3)Oc3cc4cc(c3O[C@H]3O[C@H](CO)[C@@H](O)[C@H](O)[C@H]3NC(=O)CCCCCCCC(C)C)Oc3ccc(cc3Cl)C[C@H]3NC(=O)[C@H](N)c5ccc(O)c(c5)Oc5cc(O)cc(c5)[C@H](NC3=O)C(=O)N[C@H]4C(=O)N[C@H]3C(=O)N[C@@H]2C(=O)N[C@@H](C(=O)O)c2cc(O)cc(O[C@H]4O[C@H](CO)[C@@H](O)[C@H](O)[C@H]4O)c2-c2cc3ccc2O)O[C@H](CO)[C@@H](O)[C@@H]1O ?
A. no

Q. Any idea what this test logged for CC(C)NC[C@@H](C(=O)N1CCN(c2ncnc3c2[C@H](C)C[C@H]3O)CC1)c1ccc(Cl)cc1 ?
A. yes

Q. Any idea what this test logged for CCC(C)CCCCC(=O)N[C@@H](CCN)C(=O)NC(C(=O)N[C@H](CCN)C(=O)N[C@@H]1CCNC(=O)C([C@@H](C)O)NC(=O)[C@@H](CCN)NC(=O)[C@@H](CCN)NC(=O)[C@@H](CC(C)C)NC(=O)[C@H](Cc2ccccc2)NC(=O)[C@H](CCN)NC1=O)[C@@H](C)O (stereo partly drawn) ({Octanoyl(6-Me)}-[Dab][ξThr(3R)][dDab][dDab][Dab]F[dL][dDab][dDab][ξThr(3R)]; lactam 4-C) ?
A. no

Q. Any idea what this test logged for CC(C=CC1=C(C)CCCC1(C)C)=CC=CC(C)=CC(=O)Nc1ccc(O)cc1 ?
A. yes

Q. Any idea what this test logged for Oc1cc2c(cc1O)C1c3ccc(O)c(O)c3OCC1(O)C2 (centres undefined) ?
A. no

Q. Any idea what this test logged for CCCCCCCCCCCCCCCC(=O)OC[C@@H](NC(=O)C(Cl)Cl)[C@H](O)c1ccc([N+](=O)[O-])cc1 ?
A. no

----------
# Tested on: MKL-2
# assay_name: qHTS assay to identify novel small-molecules to repurpose for Merkel cell carcinoma treatment (AID 1296009); note: nearly all actives have a fitted effect of over 60% in size; note: potency is the fitted concentration of half-maximal effect
# condition_context: MCC and control cell lines, CellTiter-Glo viability, 72 h; series mostly up to 46 µM
Results filed as inconclusive are left out. Activity calls are given as the source filed them. Calls come from the whole dose curve; as a rule, active = well fitted inhibition curve with a large enough effect; inconclusive = small, poorly fitted or top-dose-only effect; inactive = flat fitted curve, though single readings scatter.
measured_endpoint: Potency

// worked examples, Potency included
C=CC1=C(C(=O)O)N2C(=O)[C@@H](NC(=O)C(=NO)c3csc(N)n3)[C@H]2SC1 = inactive
CCNC(=O)c1cc2c(-c3cc(OCCN4CCCC4)c(Cl)cc3Cl)nc(N)nc2s1 = inactive
Cc1cnc(Nc2ccc(N3CCN(C)CC3)cc2)nc1Nc1cccc(S(=O)(=O)NC(C)(C)C)c1 = 10.5 µM (active)
COc1ccc(C(C)=O)c(O)c1 = inactive
O=[N+]([O-])c1cn2c(n1)OC[C@@H](OCc1ccc(OC(F)(F)F)cc1)C2 = inactive
CC(=O)N1CCN(c2ccc(OCc3nn(C)c(C)c3-c3cccc4c(CCCOc5cccc6ccccc56)c(C(=O)O)n(Cc5cccnc5)c34)cc2)CC1 = 0.296 µM (active)

Q. Using the record for COC1=C2C[C@@H](C)C[C@H](OC)[C@@H](O)[C@@H](C)C=C(C)[C@H](OC(N)=O)[C@@H](OC)C=CC=C(C)C(=O)NC(=CC1=O)C2=O , report its Potency.
A. 8.33 µM (active)

Q. Using the record for Nc1ccn(C[C@@H](CO)OCP(=O)(O)O)c(=O)n1 , report its Potency.
A. inactive

Q. Using the record for CCCCC(=O)O[C@]1(C(=O)CO)[C@@H](C)C[C@H]2[C@@H]3CCC4=CC(=O)C=C[C@]4(C)[C@@]3(F)[C@@H](O)C[C@@]21C , report its Potency.
A. inactive

----------
# assay_name: qHTS of pediatric cancer cell lines to identify multiple opportunities for drug repurposing: Confirmatory screen for U-2 OS cells (AID 1347122); note: nearly all actives have a fitted effect of over 65% in size
# condition_context: U-2 OS osteosarcoma cell viability; series mostly up to 45.9 µM
Records with an inconclusive call do not appear. The source made the active and inactive calls. Calls come from the whole dose curve; as a rule, active = well fitted cell-killing curve with a large enough effect; inconclusive = small, poorly fitted or top-dose-only effect; inactive = no such curve, though single readings can be large or run the other way.
Could you please pick one outcome from this set? Y for active, N for inactive

Solved cases below.
COc1cccc2c1C(=O)c1c(O)c3c(c(O)c1C2=O)C[C@@](O)(C(=O)CO)C[C@H]3O[C@H]1C[C@H](N)[C@H](O)[C@H](C)O1 = Y
Nc1nc2c(c(=O)[nH]1)N(C=O)[C@H](CNc1ccc(C(=O)N[C@@H](CCC(=O)O)C(=O)O)cc1)CN2 = N
CC(C)C[C@H](NC(=O)[C@@H](NC(=O)c1cccc(-c2ccccc2)n1)[C@@H](C)O)B(O)O = Y
COc1ccc(S(=O)(=O)Nc2cccnc2Nc2ccc(O)cc2)cc1 = Y
CC[C@@]1([C@@H]2O[C@@H]([C@H]3O[C@@](O)(CO)[C@H](C)C[C@H]3C)C[C@H]2C)CC[C@H]([C@]2(C)CC[C@]3(C[C@H](O)[C@@H](C)[C@@H]([C@@H](C)[C@@H](OC)[C@H](C)C(=O)O)O3)O2)O1 = Y

Q. Any idea what this test logged for CC(=O)[C@]1(O)Cc2c(O)c3c(c(O)c2[C@@H](O[C@H]2C[C@H](N)[C@@H](O)[C@H](C)O2)C1)C(=O)c1ccccc1C3=O ?
A. Y

Q. Any idea what this test logged for Oc1ccc(-c2ccc(-c3cc(Nc4cccc(CNC5CC5)c4)n[nH]3)cc2)c(O)c1 ?
A. Y

Q. Any idea what this test logged for COc1cccc2c1C(=O)c1c(O)c3c(c(O)c1C2=O)C[C@@](O)(C(C)=O)C[C@H]3O[C@H]1C[C@H](N)[C@H](O)[C@H](C)O1 ?
A. Y

Q. Any idea what this test logged for CC[C@]12C=CCN3CC[C@@]4(c5cc([C@@]6(C(=O)OC)C[C@H]7C[C@@H](C(C)(F)F)CN(Cc8c6[nH]c6ccccc86)C7)c(OC)cc5N(C)[C@H]4[C@@](O)(C(=O)OC)[C@H]1OC(C)=O)[C@@H]32 ?
A. N

Q. Any idea what this test logged for C[C@H](NCc1ccc2c(c1)nc(NC(=O)c1ccc(-c3cn[nH]c3)s1)n2CCc1ccccc1)C(C)(C)C ?
A. Y

Q. Any idea what this test logged for CCC(C=C[C@@H]1OC(=O)C=C[C@H]1C)=C[C@H](C)CC=CC(C)=C[C@@H](C)C(=O)[C@@H](C)[C@H](O)[C@@H](C)CC(C)=CC(=O)O ?
A. Y

Q. Any idea what this test logged for O=C(O)C[C@H](O)C[C@H](O)C=Cc1c(C2CC2)nc2ccccc2c1-c1ccc(F)cc1 ?
A. Y

Q. Any idea what this test logged for CC(C)C[C@H](NC(=O)CNC(=O)c1cc(Cl)ccc1Cl)B1OC(=O)CC(CC(=O)O)(C(=O)O)O1 (stereo not given in full) ?
A. Y

Q. Any idea what this test logged for COc1ccc(Nc2cc(-c3cnc(N)nc3)nc(N3CCOCC3)n2)cn1 ?
A. Y

Q. Any idea what this test logged for CC(=O)N1CCN(c2ccc(OCc3nn(C)c(C)c3-c3cccc4c(CCCOc5cccc6ccccc56)c(C(=O)O)n(Cc5cccnc5)c34)cc2)CC1 ?
A. N

// provenance: PubChem BioAssay (NCATS)
